Please go through the items and note down their Binding EC50 (µg/mL) cynomolgus AXL Average (s.d.).
- tgt: T1, human AXL with a cynomolgus monkey extracellular domain (ECD) (Homo sapiens, UniProt P30530, P441T/S191N/S285L/T105A/T112A/T125N/T443A)
- T1 construct: aa 1-447); human AXL transmembrane and intracellular part (the remainder of human AXL after the ECD; expressed in transfected cells; host or cells: HEK293T
- assay-procedure: Flow cytometry binding to transfected HEK293T cells
- condition-summary: at least 3 experiments

The molecule listed as IgG1-AXL-726-M101L: point mutant of IgG1-AXL-726, VH SEQ ID NO:32, VL SEQ ID NO:33 (antibody, listed as Homo sapiens, V domains shown) VH: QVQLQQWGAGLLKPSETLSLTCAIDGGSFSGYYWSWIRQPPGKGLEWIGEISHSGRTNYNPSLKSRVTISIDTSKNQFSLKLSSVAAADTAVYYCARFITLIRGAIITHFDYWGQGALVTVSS VL: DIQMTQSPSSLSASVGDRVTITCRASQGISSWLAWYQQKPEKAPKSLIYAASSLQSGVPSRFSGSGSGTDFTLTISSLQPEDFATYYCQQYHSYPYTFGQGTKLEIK has a reported Binding EC50 (µg/mL) cynomolgus AXL Average (s.d.) of 0.250 (0.066) µg/mL

Note to self: Binding EC50 (µg/mL) cynomolgus AXL Average (s.d.) recorded for IgG1-AXL-148: AXL-specific human IgG1,κ antibody, VH SEQ ID NO:5, VL SEQ ID NO:6, Ig2 domain binding (antibody, listed as Homo sapiens, V domains shown) VH: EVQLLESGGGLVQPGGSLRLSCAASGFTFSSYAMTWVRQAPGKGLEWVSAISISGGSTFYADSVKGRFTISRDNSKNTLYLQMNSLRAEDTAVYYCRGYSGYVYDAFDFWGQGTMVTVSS VL: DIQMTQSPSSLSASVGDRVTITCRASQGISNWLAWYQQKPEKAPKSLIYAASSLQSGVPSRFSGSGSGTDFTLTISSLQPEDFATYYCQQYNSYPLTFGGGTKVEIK was 0.152 (0.080) µg/mL
